Test system: RXF 393 renal
Assay: NCI tumour cell line growth inhibition, 48 h
readout: TGI (µM)
Answers are plain numbers, in µM.

Previously resolved entries follow.
compound: COc1ccc(C2[C@@H](Cl)C(=O)N2c2cc(OC)c(OC)c(OC)c2)cc1Cl (stereo not given in full)
unit string: µM
TGI: 65.5

compound: CN1CCN(Cc2ccc(NC(=O)c3[nH]ncc3Nc3ncnc4sc5c(c34)CCCC5)cc2)CC1
unit string: µM
TGI: 0.949

compound: COc1ccc(/C=C2\CN(C)C/C(=C\c3ccc(OC)c(OC)c3OC)C2=O)c(OC)c1OC
unit string: µM
TGI: 0.342

compound: CC1OC(O[C@H]2/C=C/C=C/C=C/C=C/C=C/C=C/C=C/[C@H](C)[C@@H](O)[C@@H](C)[C@H](C)OC(=O)CC(O)CC(O)CCC(O)C(O)CC(O)C[C@]3(O)C[C@H](O)C(C(=O)O)C(C2)O3)C(O)[C@H](N)C1O (stereo not given in full)
unit string: µM
TGI: 3.95

compound: O=[N+]([O-])c1cc(S(=O)(=O)Oc2ccccc2)ccc1Cl
unit string: µM
TGI: 17.7

Then this compound:
Notebook: O=C(Oc1cccnc1)c1ccsc1Nc1ccnc(C(F)(F)F)c1 , TGI read as 34.8

---

So I've got a bunch of compounds here, and I need their TGI values.
Test system: A549 NSCLC
Experiment: NCI tumour cell line growth inhibition, 48 h

Below, each entry is followed by its recorded TGI result.
compound: C[C@H]1C=C2[C@@H]3CC(C)(C(=O)O)CC[C@]3(C)CC[C@]2(C)[C@]2(C)CC[C@H]3C(C)(C)[C@@H](OC(=O)c4cccc5c(=O)c6ccccc6[nH]c45)CC[C@]3(C)[C@@H]12 (stereo partly specified)
assay target: A549 NSCLC
readout: TGI
observed value: > 100 µM
--
compound: CCOC1=C2N=C(Cc3ccccc3F)N=C2C(=O)c2ccccc21
assay target: A549 NSCLC
readout: TGI
observed value: > 100 µM
--
compound: CN1COc2c(n(C)c(=O)[nH]c2=O)C1
assay target: A549 NSCLC
readout: TGI
observed value: > 100 µM

Please look at the items below and tell me TGI for each one, in order.
1. CCCCCCCCCCCCCP(=O)(O)NCC(N)=O
2. CCCCCn1sc(=O)n(Cc2ccc(CNC(=O)OCc3ccc4cccc(O)c4n3)cc2)c1=O
3. [N-]=[N+]=C1C(=O)C2CC3CC(C2)CC1C3
4. COc1ccc(/C=C2\CN(C)C/C(=C\c3ccc(OC)c(OC)c3OC)C2=O)c(OC)c1OC
5. O=c1onc2c3ccccc3ncn12
6. CC(=O)c1c(C(F)(F)F)n([O-])c2ccc(C)cc2[n+]1=O

1. > 100 µM
2. 5.57 µM
3. > 100 µM
4. 1.07 µM
5. > 100 µM
6. 26.6 µM

# batch: return TGI for each of the 3 compounds below
1. COC(=O)C1=C(OC(=O)c2ccccc2)C(C(=O)OC)[C@]2(O)[C@@H](C(=O)OC)[C@H]1C[C@@H](c1ccccc1)[C@@H]2C(=O)OC (stereo partly specified)
2. O=c1[nH]cnc2c(C3NC(CO)C(O)C3O)c[nH]c12 (stereo unspecified)
3. N#Cc1c(N)[nH]c2ccc(Sc3ccccc3)cc12

1. 34.5 µM
2. > 100 µM
3. 12.1 µM

List reported TGI for each of these compounds:
1. CCCc1ccc(NCc2cc(OC)c(OC)c(OC)c2)cc1
2. CC(NC(C)(C)C)C(=O)c1cccc(Cl)c1 (stereo unspecified)
3. CCN(CC)Cc1sc2nc3ccccc3n2c1-c1ccc(OC)cc1
4. O=C(NC1CCCC1=O)c1ccccc1 (stereo unspecified)

> 100 µM
> 100 µM
> 100 µM
> 100 µM

---

For each entry below, report its TGI value.
Test system: NCI-H23 lung
Assay: NCI tumour cell line growth inhibition, 48 h
Where a SMILES comes first, the peptide text is derived from it. Bridges are numbered along the chain shown (N, C = ends). Roman numbers before positions name the chains, in order. [ ]: non-standard residue; d: D form. The star is where a group is joined. Quinoxaline2carbonyl = O=C(c1cnc2ccccc2n1)*; NMeV = CN[CH](C(=O)O)C(C)C; NMeC = CN[CH](CS)C(=O)O

Recorded results for 6 compounds are shown here.
compound: CN(C)c1ccc(N=Nc2ccncc2)cc1
readout: TGI
observed value: > 100 µM
--
compound: Cc1ccc(S(=O)OC2C3CC4CC(C3)CC2C4)cc1 (centres undefined)
readout: TGI
observed value: > 100 µM
--
compound: CC1NC(=O)C(NC(=O)c2cnc3ccccc3n2)COC(=O)C(C(C)C)N(C)C(=O)C2CSSCC(C(=O)N(C)C(C(C)C)C(=O)OCC(NC(=O)c3cnc4ccccc4n3)C(=O)NC(C)C(=O)N2C)N(C)C1=O (centres undefined) (I: Quinoxaline2carbonyl-SA[NMeC][NMeV] / II: Quinoxaline2carbonyl-SA[NMeC][NMeV]; ester I:1-II:C, I:C-II:1; disulfide I:3-II:3; configuration not given here)
readout: TGI
observed value: < 0.0133 µM
--
compound: CCOc1cc(NC(C)=O)ccc1C(=O)NN1C(=O)C(Cl)C1c1ccco1 (centres undefined)
readout: TGI
observed value: 39 µM
--
compound: CN1CCC(n2cnc(-c3ccc(F)cc3)c2-c2ccnc(N)n2)CC1
readout: TGI
observed value: > 25 µM
--
compound: CCOc1nc(N)nc(C)c1N=Nc1ccc(Cl)cc1
readout: TGI
observed value: > 100 µM

Parameters: items (list). Returns: TGI for each item.
1. CCCCCn1sc(=O)n(Cc2ccc(CNC(=O)OCc3ccc4cccc(O)c4n3)cc2)c1=O
2. CN(C)c1ccc(/C=C2\C=Cc3ccccc32)cc1
3. CCNC1=C(NC(=O)CC)C(=O)c2ccccc2C1=O
4. CCN(Cc1ccc(Cl)s1)c1ccc(CO)c(Cl)c1
5. Cc1cc2c(c(C(=O)O)c1C)-c1cccc(F)c1C2=O
6. CCOP(=O)(OCC)C(C)(CC)NC (centres undefined)

3.59 µM
> 100 µM
> 100 µM
42.1 µM
> 100 µM
> 100 µM

---

Test system: COLO 205 colon
Assay: NCI tumour cell line growth inhibition, 48 h
readout: TGI (µM)
Give bare numbers, in µM.

Here's what some known entries look like.
mol smiles: CSC(=S)N/N=C(\C)c1cccc(C)n1
unit string: µM
TGI: 2.82

mol smiles: COC(=O)c1c(OC(C)=O)ccc2c1c1c(OC(C)=O)c3ccccc3c(OC(C)=O)c1n2Cc1ccccc1
unit string: µM
TGI: 15.6

Query compound follows.
Test item CCCCCn1sc(=O)n(Cc2ccc(CNC(=O)OCc3ccc4cccc(O)c4n3)cc2)c1=O ; COLO 205 colon; reported TGI was 3.75

---

System: T-47D breast
Test: NCI tumour cell line growth inhibition, 48 h
Would you kindly list TGI for each of these compounds?

In the examples that follow, each entry is paired with its recorded TGI.
compound: COc1cc(C(c2ccc3c(c2)OCO3)N2C(=O)CCC2C(=O)O)cc(OC)c1OC (stereo not given)
TGI: > 100 µM
--
compound: CCC1(O)C(=O)OCc2c1cc1n(c2=O)Cc2cc3cc(N)ccc3nc2-1 (stereo not given)
TGI: > 100 µM
--
compound: COc1cc(/C=C/[N+](=O)[O-])cc(Br)c1OC
TGI: 8.48 µM
--
compound: C[CH2][Pb]([CH2]C)([CH2]C)[O]C(=O)c1ccc2ccccc2n1
TGI: > 10 µM

Could I get TGI for every one of these entries?
1. CN(C)CCCN1c2ccccc2CCc2ccc([N+](=O)[O-])cc21
2. Cc1ccc(N=Nc2c(O)c(C(=O)Nc3ccccc3)cc3ccccc23)c([N+](=O)[O-])c1
3. CCNC1=C(NC(=O)CC)C(=O)c2ccccc2C1=O
4. COc1cc2c(c(OC)c1OC)-c1ccc(SC)c(=O)cc1[C@@H](NC1OC(CO)C(O)C(O)C1O)CC2 (stereo not given in full)
5. CCOc1cc(NC(C)=O)ccc1C(=O)NN1C(=O)C(Cl)C1c1ccco1 (stereo not given)
6. FC(F)(F)c1ccc2nc(Sc3ccccn3)cnc2c1

34.1 µM
> 100 µM
> 100 µM
> 100 µM
40.3 µM
> 100 µM

---

Give measured TGI for each item. Keep answers brief.
Test system: SNB-19 CNS
Test: NCI tumour cell line growth inhibition, 48 h

// for each molecule in input: emit TGI
1. COC(CN1C=C(Sc2ccccc2)CC1)OC
2. Cc1cc2c(c(C(=O)O)c1C)-c1cccc(F)c1C2=O
3. OC1(c2ccccc2)CSC2=Nc3ccccc3C3CCN1N23 (configuration not stated)
4. CC1(O)OC(=O)C2=C1CCC1C2CCC2(C)C(O)CCC12 (configuration not stated)
5. CN1CCN(CC(O)COc2c(Br)c(Br)c(Br)c3c2OC(C)(C)C3)CC1 (configuration not stated)
6. CC(=O)c1c(C(F)(F)F)n([O-])c2ccc(C)cc2[n+]1=O
7. CCOc1cc(NC(C)=O)ccc1C(=O)NN1C(=O)C(Cl)C1c1ccco1 (configuration not stated)

> 100 µM
> 100 µM
37.4 µM
> 100 µM
42.9 µM
> 100 µM
32.1 µM

Batch request: TGI for each of the following molecules.
1. CCC1(COC(NC(=O)c2ccccc2)(C(F)(F)F)C(F)(F)F)COC1
2. O=C(CSC1=NCCN1)Nc1ccccc1
3. COCCOCOc1ccc(OCOCCOC)c2c1C(=O)c1ccccc1C2=O
4. COc1cc(/C=C/[N+](=O)[O-])cc(Br)c1OC
5. COc1ccc(-n2cnc3c(NC(CCSC)C(=O)O)ncnc32)cc1 (configuration not stated)

1. > 100 µM
2. > 100 µM
3. > 100 µM
4. 19.2 µM
5. > 100 µM
